Molecular target: PDZ protein NSP (Homo sapiens, UniProt Q92743)
Construct: made in house
Sequence (Q92743 359-473): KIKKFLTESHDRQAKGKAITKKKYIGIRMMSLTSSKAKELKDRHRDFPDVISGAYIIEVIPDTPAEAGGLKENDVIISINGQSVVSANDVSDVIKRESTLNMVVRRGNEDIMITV
Assay: PRISM Matrix ELISA modified G assay (pre-incubation), peptide titration
Settings: read-out: EC50 of binding to the PDZ protein NSP; modified G assay titration, third experiment (FIG. 5, printed as FIG. 3D)
Where no end group is shown, it is not given here.
observation_type: EC50 (µM)

| substance | assay_value |
| --- | --- |
| YGRKKRRQRRRRQGFERALL-OH [Peptide 1905] | 0.03 |

---

Target: PDZ protein NSP (Homo sapiens, UniProt Q92743)
Construct: made in house
Assay: PRISM Matrix ELISA modified G assay (pre-incubation), peptide titration
Settings: read-out: EC50 of binding to the PDZ protein NSP; modified G assay titration (FIG. 2D, FIG. 3D)
Where no end group is shown, it is not given here.
observation_type: EC50

| substance | assay_value |
| --- | --- |
| YGRKKRRQRRRRQGLERILL-OH [Peptide 1904] | 14.9 nM |
| YGRKKRRQRRRRQGFERALL-OH [Peptide 1905] | 8 nM |

---

Biological target: PDZ protein ZO-1 d2 (domain 2) (Homo sapiens, UniProt Q07157, DEL264-264)
Construct: made in house
Assay: PRISM Matrix ELISA modified G assay (pre-incubation), peptide titration
Conditions: read-out: EC50 of binding to the PDZ protein ZO-1 d2; modified G assay titration, third experiment (FIG. 5B)
Where no end group is shown, it is not given here.

| substance | EC50 (nM) |
| --- | --- |
| YGRKKRRQRRRRQGFERALL-OH [Peptide 1905] | 36 |

---

Molecular target: PDZ protein NSP (Homo sapiens)
Construct: made in house
Experiment: PRISM Matrix ELISA G assay, peptide titration
Type: binding
Conditions: read-out: EC50 of binding to the PDZ protein NSP; regular G assay titration, GST/PDZ fusion (FIG. 1D, FIG. 4D)
pEC50: −log10 of the molar value. Where no end group is shown, it is not given here.
observation_type: pEC50

| substance | assay_value |
| --- | --- |
| YGRKKRRQRRRRQGFERALL-OH [Peptide 1905] | 6.78 |

---

Each record here notes measured pEC50.
Molecular target: PDZ protein ZO-1 d2 (domain 2) (Homo sapiens, UniProt Q07157, DEL264-264)
Construct: made in house
Sequence (Q07157 with tags, fused parts or gaps DEL264-264): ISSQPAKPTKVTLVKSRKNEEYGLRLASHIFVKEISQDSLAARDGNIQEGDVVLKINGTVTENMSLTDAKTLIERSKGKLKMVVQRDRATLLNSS
Test: PRISM Matrix ELISA G assay, peptide titration
Assay type: binding
Details: read-out: EC50 of binding to the PDZ protein ZO-1 d2; regular G assay titration, GST/PDZ fusion (FIG. 1B, FIG. 4B)
pEC50: −log10 of the molar value. Where no end group is shown, it is not given here.

| substance | pEC50 |
| --- | --- |
| YGRKKRRQRRRRQGFERALL-OH [Peptide 1905] | 6.74 |
| YGRKKRRQRRRRQGLERILL-OH [Peptide 1904] | 6.77 |

---

Each record here notes measured pEC50.
Biological target: PDZ protein Rim2 (Homo sapiens)
Construct: made in house
Sequence (Q9UQ26 632-757): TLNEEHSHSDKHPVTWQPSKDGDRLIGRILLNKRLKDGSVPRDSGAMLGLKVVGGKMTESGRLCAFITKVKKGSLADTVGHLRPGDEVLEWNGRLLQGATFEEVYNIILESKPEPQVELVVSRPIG
Experiment: PRISM Matrix ELISA G assay, peptide titration
Format: binding
Details: read-out: EC50 of binding to the PDZ protein Rim2; regular G assay titration, GST/PDZ fusion (FIG. 1C, FIG. 4C)
pEC50: −log10 of the molar value. Where no end group is shown, it is not given here.

| substance | pEC50 |
| --- | --- |
| YGRKKRRQRRRRQGFERALL-OH [Peptide 1905] | 6.74 |
| YGRKKRRQRRRRQGLERILL-OH [Peptide 1904] | 6.39 |
